# Target: TR-α (Homo sapiens, UniProt P10827)
# Sequence (P10827 1-410 isoform P10827-2): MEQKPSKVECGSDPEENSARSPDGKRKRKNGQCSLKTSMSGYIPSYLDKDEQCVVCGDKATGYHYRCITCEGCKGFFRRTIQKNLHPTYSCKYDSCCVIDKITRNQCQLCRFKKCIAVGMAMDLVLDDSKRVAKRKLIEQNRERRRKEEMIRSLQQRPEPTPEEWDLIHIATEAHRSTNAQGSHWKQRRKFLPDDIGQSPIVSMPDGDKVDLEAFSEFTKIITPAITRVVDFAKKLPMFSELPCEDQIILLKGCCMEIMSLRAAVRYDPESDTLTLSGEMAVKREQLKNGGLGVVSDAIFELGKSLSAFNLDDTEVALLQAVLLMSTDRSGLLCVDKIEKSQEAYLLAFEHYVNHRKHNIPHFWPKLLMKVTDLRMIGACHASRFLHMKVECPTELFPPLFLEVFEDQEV
# Method summary: In vitro TR-α activity (in-house protocol)
# Type: cell-based
# Condition notes: Conc. 1000 nM
Mark Met only when TR-α Fold Induction w.r.t T3(100 nm) stays strictly below 50. Values equal to the cut-off are Not met.

- CCOC(=O)N(CC(=O)O)c1cc(Cl)c(Oc2ccc(O)c(-c3ccccc3)c2)c(Cl)c1: Met
- CC(C)c1cc(Oc2c(Cl)cc(N(CC(=O)O)C(=O)Oc3ccc(O)cc3)cc2Cl)ccc1O: Not met
- CC(C)(C)c1cc(Oc2c(Cl)cc(N(CC(=O)O)CC(=O)O)cc2Cl)ccc1O: Not met
- CN(C)S(=O)(=O)c1cc(Oc2c(Cl)cc(N(CC(=O)O)C(=O)Oc3ccc(O)cc3)cc2Cl)ccc1O: Met
- O=C(O)CN(CC(=O)O)c1cc(Cl)c(Oc2ccc(O)c(S(=O)(=O)N3CCCCC3)c2)c(Cl)c1: Met
- O=C(O)CN(C(=O)Oc1ccc(O)cc1)c1cc(Cl)c(Oc2ccc(O)c(S(=O)(=O)NC3CCC3)c2)c(Cl)c1: Not met
- Cc1cc(N(CC(=O)O)C(=O)Oc2ccc(O)cc2)cc(C)c1Oc1ccc(O)c(C(C)C)c1: Not met

====

# Target: TR-β (Homo sapiens)
# Sequence (P10828 1-461): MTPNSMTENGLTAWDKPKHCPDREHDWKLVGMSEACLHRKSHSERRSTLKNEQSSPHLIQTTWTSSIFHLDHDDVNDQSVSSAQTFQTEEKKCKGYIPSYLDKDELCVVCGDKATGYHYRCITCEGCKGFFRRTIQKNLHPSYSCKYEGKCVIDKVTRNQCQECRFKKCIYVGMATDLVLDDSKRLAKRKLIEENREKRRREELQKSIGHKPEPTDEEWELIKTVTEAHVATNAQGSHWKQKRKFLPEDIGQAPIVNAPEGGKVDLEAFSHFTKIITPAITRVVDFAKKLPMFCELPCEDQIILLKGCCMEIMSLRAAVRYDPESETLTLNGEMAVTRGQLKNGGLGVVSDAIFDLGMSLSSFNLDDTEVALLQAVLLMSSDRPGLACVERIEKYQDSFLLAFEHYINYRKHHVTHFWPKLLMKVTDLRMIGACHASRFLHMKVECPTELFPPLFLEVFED
# Method summary: In vitro TR-β activity (in-house protocol)
# Type: cell-based
# Condition notes: Conc. 100 nM; read-out: TR-β Fold Induction w.r.t T3(100 nm)
The following compounds are listed with their measured fold induction at 0.1 µM values.
Measured parameter: fold induction at 0.1 µM

- CN(C)S(=O)(=O)c1cc(Oc2c(Cl)cc(N(CC(=O)O)C(=O)Oc3ccc(O)cc3)cc2Cl)ccc1O: 43.5
- O=C(O)CN(C(=O)Oc1ccc(O)cc1)c1cc(Cl)c(Oc2ccc(O)c(S(=O)(=O)NC3CCC3)c2)c(Cl)c1: 54.6
- Cc1cccc(C(=O)c2cc(Oc3c(Cl)cc(N(CC(=O)O)C(=O)Oc4ccc(O)cc4)cc3Cl)ccc2O)c1: 40.7
- CCOC(=O)N(CC(=O)O)c1cc(C)c(Oc2ccc(O)c(C(C)CC)c2)c(C)c1 (centres unmarked): 23
- O=C(O)CN(C(=O)Oc1ccc(O)cc1)c1cc(Cl)c(Oc2ccc(O)c(S(=O)(=O)N3CCOCC3)c2)c(Cl)c1: 28.9
- O=C(O)CN(CC(=O)O)c1cc(Cl)c(Oc2ccc(O)c(S(=O)(=O)N3CCCCC3)c2)c(Cl)c1: 26
- CC(C)(C)c1cc(Oc2c(Cl)cc(N(CC(=O)O)CC(=O)O)cc2Cl)ccc1O: 51.1
- CC(C)NS(=O)(=O)c1cc(Oc2c(Cl)cc(N(CC(=O)O)C(=O)Oc3ccc(O)cc3)cc2Cl)ccc1O: 47.1
- CCOC(=O)N(CC(=O)O)c1cc(Cl)c(Oc2ccc(O)c(-c3ccccc3)c2)c(Cl)c1: 58.5
- CCOC(=O)N(CC(=O)O)c1cc(Cl)c(Oc2ccc(O)c(C(=O)c3ccc(Cl)cc3)c2)c(Cl)c1: 87.7
- CCC(C)c1cc(Oc2c(C)cc(N(CC(=O)O)CC(=O)O)cc2C)ccc1O (centres unmarked): 202
